assayMethodText: self-splicing fitness, log relative to wild type (ln ratio); higher = more splicing; Tetrahymena group I intron in knt gene, E. coli kanamycin selection, DiMSum; sequences stand for … in CUCUCU…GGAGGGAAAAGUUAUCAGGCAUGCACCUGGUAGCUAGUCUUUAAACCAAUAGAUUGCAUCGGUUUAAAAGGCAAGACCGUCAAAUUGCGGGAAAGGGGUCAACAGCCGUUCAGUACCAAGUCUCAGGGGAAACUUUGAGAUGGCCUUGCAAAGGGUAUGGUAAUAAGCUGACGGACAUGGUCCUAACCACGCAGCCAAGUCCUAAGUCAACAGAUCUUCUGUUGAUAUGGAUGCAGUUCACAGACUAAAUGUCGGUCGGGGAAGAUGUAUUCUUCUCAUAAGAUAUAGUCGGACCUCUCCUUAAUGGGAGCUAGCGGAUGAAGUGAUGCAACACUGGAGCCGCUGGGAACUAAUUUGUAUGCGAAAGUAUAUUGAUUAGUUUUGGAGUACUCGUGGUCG;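 also: selection with 25 µg/mL kanamycin versus none on LB agar overnight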
assaySetup: 37 °C
Decide by self-splicing fitness (ln): equal to or exceeding -2 means met, less means not met.

Below, 3 sequences whose answers are already recorded.
* AAGCAGCAAUAUUACGACUU | met
* UUGUAGCAAUAUUACGCUUU | not met
* CCGAAGCAAUAUUACGUAGG | not met

Please tell me: is the sequence UCAAAGCAAUAUUACGACCG at or over -2 in terms of self-splicing fitness (ln)?
met

Please tell me: is the sequence AACUAGCAAUAUUACGGUAG at or over -2 in terms of self-splicing fitness (ln)?
met

Please tell me: is the sequence GUGGAGCAAUAUUACGGUGA at or over -2 in terms of self-splicing fitness (ln)?
met
